Attribution: paper PMC4421842

Each item that follows carries a reported half-life.
Assay: Pharmacokinetic assessment
Type: in vivo, C57BL/6 mice
Conditions: female, C57BL/6, mouse, in vivo; C57/BL6 mice, 50 mg kg-1 oral gavage, serum
# value in h; strip the unit string

CCc1cc(=O)n2c3c(c4c(cc13)c(C)cc(=O)n4C)OC2; 1.2

The record that follows has no half-life shown yet.
Please give the measured half-life for this compound: CCn1c(=O)cc(C)c2cc3c(C)cc(=O)n4c3c(c21)OC4 0.9

----------
System: FQR S. aureus (NRS3, FQR)
Assay: MIC, microdilution broth assay, FQR MRSA NRS3
Format: cell-based
Details: NRS3; S84L GyrA and S80F ParC; three independent replicates
test_readout: MIC against S. aureus NRS3 (µg/mL)
# value in µg/mL; strip the unit string

CCCc1cc(=O)n2c3c(c4c(cc13)c(C)cc(=O)n4C)OC2; 0.25

Please give the measured MIC against S. aureus NRS3 for this molecule: CCCc1cc(=O)n(C)c2c3c4c(cc12)c(CCC)cc(=O)n4CO3 32

Please give the measured MIC against S. aureus NRS3 for this molecule: CCc1cc(=O)n2c3c(c4c(cc13)c(C)cc(=O)n4C)OC2 0.12

Please give the measured MIC against S. aureus NRS3 for this molecule: Cc1cc(=O)n2c3c(c4c(cc13)c(C)cc(=O)n4CC(C)C)OC2 2

----------
Each item that follows carries a reported MIC.
System: WT S. aureus (ATCC 29213, WT)
Assay: microbe, parasite or virus in culture
Type: cell-based
Settings: Staphylococcus aureus, ATCC29213, ATCC 29213; WT GyrA and WT ParC; three independent replicates; read-out: MIC against S. aureus 29213

Some entries whose results are on file:
Cc1cc(=O)n(C)c2c3c4c(cc12)c(C)cc(=O)n4CO3 [DNM, deoxynybomycin]; > 1 µg/mL
CCCc1cc(=O)n(C)c2c3c4c(cc12)c(CCC)cc(=O)n4CO3 [compound 14]; > 32 µg/mL
CCCCn1c(=O)cc(CCC)c2cc3c(CCC)cc(=O)n4c3c(c21)OC4 [compound 15]; > 32 µg/mL
Cc1cc(=O)n2c3c(c4c(cc13)c(C)cc(=O)n4CC(C)C)OC2 [compound 11]; > 32 µg/mL

The record that follows has no MIC shown yet.
Please give the measured MIC for this compound: CCCCCCn1c(=O)cc(C)c2cc3c(C)cc(=O)n4c3c(c21)OC4 [compound 10] > 64 µg/mL

----------
System: FQR S. aureus (NRS3, FQR)
Assay: MIC, microdilution broth assay, FQR MRSA NRS3
Assay type: cell-based
Details: NRS3; S84L GyrA and S80F ParC; three independent replicates
Each item that follows carries a reported MIC against S. aureus NRS3.
# value in µg/mL; strip the unit string

Some entries whose results are on file:
CCCCn1c(=O)cc(CCC)c2cc3c(CCC)cc(=O)n4c3c(c21)OC4; 32
CCCc1cc(=O)n(C)c2c3c4c(cc12)c(C)cc(=O)n4CO3; 1
CCCn1c(=O)cc(C)c2cc3c(C)cc(=O)n4c3c(c21)OC4; 0.12

Find MIC against S. aureus NRS3 (FQR S. aureus (NRS3, FQR)) for the entry Cc1cc(=O)n(C)c2c3c4c(cc12)c(C)cc(=O)n4CO3 0.03

Find MIC against S. aureus NRS3 (FQR S. aureus (NRS3, FQR)) for the entry CC(=O)NC[C@H]1CN(c2ccc(N3CCOCC3)c(F)c2)C(=O)O1 [linezolid, reference compound] 0.5

Find MIC against S. aureus NRS3 (FQR S. aureus (NRS3, FQR)) for the entry CCc1cc(=O)n(C)c2c3c4c(cc12)c(CC)cc(=O)n4CO3 16
